- target of assay: T1, Human CXCR2 (human, UniProt P25025 1-360)
- T1 sequence: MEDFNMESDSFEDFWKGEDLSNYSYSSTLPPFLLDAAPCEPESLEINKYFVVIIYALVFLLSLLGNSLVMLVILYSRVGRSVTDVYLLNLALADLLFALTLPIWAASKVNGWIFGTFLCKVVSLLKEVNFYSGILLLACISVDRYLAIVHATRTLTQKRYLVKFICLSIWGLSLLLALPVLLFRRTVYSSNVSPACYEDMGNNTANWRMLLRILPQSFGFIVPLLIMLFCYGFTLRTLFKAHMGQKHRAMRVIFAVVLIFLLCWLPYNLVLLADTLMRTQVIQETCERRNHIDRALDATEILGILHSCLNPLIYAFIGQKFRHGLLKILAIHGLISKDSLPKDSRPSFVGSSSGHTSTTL
- assay procedure: cell-based or functional assay
endpoint name: Human WBSC IC50 (rhGROα) (nM)
Field format: number, assumed nM, no unit text.

Known Human WBSC IC50 (rhGROα) results, listed for orientation:
CXCR20034 (bispecific antibody, Biparatopic: two VHH joined by a GlySer linker; also called 163D2-35GS-2B2; 163D2-2B2; not shown: C-terminal c-myc tag and His6 tag coded by pAX100) EVQLVESGGGLVQAGGSLRLSCAASGRTFSDYAMGWFRQAPGKEREFVAAITWNGGRVFYTASVKGRFTISRDNAKNTMYLQMNSLKPEDTAVYYCAADKDRRTDYLGHPVAYWGQGTQVTVSSGGGGSGGGGSGGGGSGGGGSGGGGSGGGGSGGGGSEVQLVESGGELVQPGGSLRLSCAASGSILTINAMGWYRQAPGKQRELVVRRTRGGSTTYQDSVKGRFTISADIAKKTMYLQMNSLKPEDTAVYYCMLDDRGGVYWGQGTQVTVSS : 0.29
CXCR20030 (other, Biparatopic: two VHH joined by a GlySer linker; also called 163D2-35GS-54B12; 163D2-54B12; not shown: C-terminal c-myc tag and His6 tag coded by pAX100) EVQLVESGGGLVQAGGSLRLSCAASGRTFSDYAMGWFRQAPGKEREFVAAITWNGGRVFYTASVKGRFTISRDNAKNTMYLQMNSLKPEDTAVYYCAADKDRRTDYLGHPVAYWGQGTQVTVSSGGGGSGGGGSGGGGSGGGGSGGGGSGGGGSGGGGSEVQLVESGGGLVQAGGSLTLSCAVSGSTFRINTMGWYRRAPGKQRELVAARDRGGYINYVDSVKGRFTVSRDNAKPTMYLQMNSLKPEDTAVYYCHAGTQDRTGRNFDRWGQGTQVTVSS : 0.215

Problem: Please look up its Human WBSC IC50 (rhGROα): CXCR20026 (bispecific antibody, Biparatopic: two VHH joined by a GlySer linker; also called 163E3-35GS-127D1; 163E3-127D1; not shown: C-terminal c-myc tag and His6 tag coded by pAX100) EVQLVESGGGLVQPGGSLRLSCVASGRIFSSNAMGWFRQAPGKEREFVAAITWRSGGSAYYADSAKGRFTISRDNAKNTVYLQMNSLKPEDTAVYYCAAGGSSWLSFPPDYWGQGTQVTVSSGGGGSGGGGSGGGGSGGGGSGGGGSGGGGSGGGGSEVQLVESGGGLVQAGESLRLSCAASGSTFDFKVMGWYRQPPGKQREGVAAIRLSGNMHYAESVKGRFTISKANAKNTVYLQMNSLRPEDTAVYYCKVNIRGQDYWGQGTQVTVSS
Result: 0.165

Problem: Value lookup for Human WBSC IC50 (rhGROα); key = CXCR20014 (bispecific antibody, Biparatopic: two VHH joined by a GlySer linker; also called 97A9-35GS-2B2; 97A9-2B2; not shown: C-terminal c-myc tag and His6 tag coded by pAX100) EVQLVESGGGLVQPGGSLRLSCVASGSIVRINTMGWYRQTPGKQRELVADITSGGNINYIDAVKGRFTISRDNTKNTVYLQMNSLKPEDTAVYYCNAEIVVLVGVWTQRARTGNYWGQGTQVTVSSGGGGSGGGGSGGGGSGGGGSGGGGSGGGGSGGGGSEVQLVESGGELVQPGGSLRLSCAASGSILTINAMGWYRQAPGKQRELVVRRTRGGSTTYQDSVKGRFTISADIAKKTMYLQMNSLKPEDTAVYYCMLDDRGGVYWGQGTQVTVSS
Result: 0.445

Problem: Any idea what Human WBSC IC50 (rhGROα) was measured for CXCR20028 (other, Biparatopic: two VHH joined by a GlySer linker; also called 97A9-35GS-54B12; 97A9-54B12; not shown: C-terminal c-myc tag and His6 tag coded by pAX100) EVQLVESGGGLVQPGGSLRLSCVASGSIVRINTMGWYRQTPGKQRELVADITSGGNINYIDAVKGRFTISRDNTKNTVYLQMNSLKPEDTAVYYCNAEIVVLVGVWTQRARTGNYWGQGTQVTVSSGGGGSGGGGSGGGGSGGGGSGGGGSGGGGSGGGGSEVQLVESGGGLVQAGGSLTLSCAVSGSTFRINTMGWYRRAPGKQRELVAARDRGGYINYVDSVKGRFTVSRDNAKPTMYLQMNSLKPEDTAVYYCHAGTQDRTGRNFDRWGQGTQVTVSS ?
Result: 0.43

Problem: Any idea what its Human WBSC IC50 (rhGROα) is? The binder is CXCR20035 (other, Biparatopic: two VHH joined by a GlySer linker; also called 54B12-35GS-163E3; 54B12-163E3; not shown: C-terminal c-myc tag and His6 tag coded by pAX100) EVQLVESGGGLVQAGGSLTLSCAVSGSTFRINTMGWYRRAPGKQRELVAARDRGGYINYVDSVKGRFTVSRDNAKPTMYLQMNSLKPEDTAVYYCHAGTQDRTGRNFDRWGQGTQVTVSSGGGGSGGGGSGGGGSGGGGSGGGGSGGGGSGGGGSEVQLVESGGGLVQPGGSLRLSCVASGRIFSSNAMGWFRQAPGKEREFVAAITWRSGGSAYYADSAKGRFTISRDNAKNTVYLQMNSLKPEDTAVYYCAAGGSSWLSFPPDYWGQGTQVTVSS
Result: 0.24
